system: PKC (rat brain); assay: Protein Kinase C inhibition assay (PKC), radioactivity-based; type: biochemical; conditions: 10 μM compound; NA = not active
Measured % Inhibition PKC of individual entries

| compound | % Inhibition PKC / % |
| --- | --- |
| N[C@@H]1C=CC(n2c3ccccc3c3c4c(c5c6ccccc6[nH]c5c32)C(=O)NC4=O)C1 (mixture of isomers) | 67.47 |
| CC(=O)O[C@@H]1C=CC(n2c3ccccc3c3c4c(c5c6ccccc6[nH]c5c32)C(=O)NC4=O)CC1 (mixture of isomers) | 84.32 |
| CC(=O)O[C@H]1C=CC(n2c3ccccc3c3c4c(c5c6ccccc6[nH]c5c32)C(=O)NC4=O)CC1 (mixture of isomers) | 52.00 |
| O=C1NC(=O)c2c1c1c3ccccc3[nH]c1c1c2c2ccccc2n1C1CC[C@H](O)[C@@H](O)[C@H]1O (mixture of isomers) | 55.37 |
| N[C@H]1C=CC(n2c3ccccc3c3c4c(c5c6ccccc6[nH]c5c32)C(=O)NC4=O)C1 (mixture of isomers) | 81.34 |
| CN1C(=O)c2c(c3c4ccccc4n(C4C[C@H](O)[C@@H](O)[C@H]4O)c3c3[nH]c4ccccc4c23)C1=O (mixture of isomers) | 55.37 |

====

tested on: PKC (rat brain); test: Protein Kinase C inhibition assay (PKC), radioactivity-based; type: biochemical; details: 10 μM compound; NA = not active
Measured % Inhibition PKC of individual entries

| compound | target_under_test | u | % Inhibition PKC |
| --- | --- | --- | --- |
| CCOC(=O)N1C(=O)c2c(c3c4ccccc4n(C4C=C[C@H](NC(C)=O)C4)c3c3[nH]c4ccccc4c23)C1=O (mixture of isomers) | PKC (rat brain) | % | 68.74 |
| COc1ccc(CN2C(=O)c3c(c4c5ccccc5n(C5CCC(O)CC5)c4c4[nH]c5ccccc5c34)C2=O)cc1 (stereo not shown) | PKC (rat brain) | % | 102.77 |
| O=C1NC(=O)c2c1c1c3ccccc3[nH]c1c1c2c2ccccc2n1C1C=C[C@H](O)C1 (mixture of isomers) | PKC (rat brain) | % | 58.82 |
| O=C1NC(=O)c2c1c1c3ccccc3[nH]c1c1c2c2ccccc2n1C1C=C[C@H](Nc2ccccc2)CC1 (mixture of isomers) | PKC (rat brain) | % | 111.91 |

====

target: His tagged ERK2 (Homo sapiens); experiment: Extracellular signal Regulated Kinase 2 inhibition assay (ERK2), radioactivity-based; type: biochemical; settings: 10 μM compound; NA = not active
Sequence (P28482 whole entry): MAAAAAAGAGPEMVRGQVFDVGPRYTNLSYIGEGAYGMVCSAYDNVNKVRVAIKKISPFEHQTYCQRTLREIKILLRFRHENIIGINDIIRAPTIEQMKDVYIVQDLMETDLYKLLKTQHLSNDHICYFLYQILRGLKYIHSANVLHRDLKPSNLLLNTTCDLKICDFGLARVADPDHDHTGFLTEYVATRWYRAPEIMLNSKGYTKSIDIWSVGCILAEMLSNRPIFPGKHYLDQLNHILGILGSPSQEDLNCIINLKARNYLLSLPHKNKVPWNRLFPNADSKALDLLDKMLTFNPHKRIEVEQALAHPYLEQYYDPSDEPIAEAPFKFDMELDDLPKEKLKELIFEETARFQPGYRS
inhibition at 10 µM of 60% or higher: yes (1). Under 60%: no (0).

| molecule | group |
| --- | --- |
| O=C1NC(=O)c2c1c1c3ccccc3[nH]c1c1c2c2ccccc2n1C1C=C[C@H](O)C1 (mixture of isomers) [NAD162] | no (0) |
| CC(=O)O[C@H]1C=CC(n2c3ccccc3c3c4c(c5c6ccccc6[nH]c5c32)C(=O)NC4=O)CC1 (mixture of isomers) [NAD106] | no (0) |
| O=C1NC(=O)c2c1c1c3ccccc3[nH]c1c1c2c2ccccc2n1C1C=C[C@H](Nc2ccccc2)CC1 (mixture of isomers) [NAD148] | no (0) |
| O=C1NC(=O)c2c1c1c3ccccc3[nH]c1c1c2c2ccccc2n1C1CC[C@H](O)[C@@H](O)[C@H]1O (mixture of isomers) [NAD149] | yes (1) |
| N[C@@H]1C=CC(n2c3ccccc3c3c4c(c5c6ccccc6[nH]c5c32)C(=O)NC4=O)C1 (mixture of isomers) [NAD116] | no (0) |
| O=C1NC(=O)c2c1c1c3ccccc3[nH]c1c1c2c2ccccc2n1C1C=C[C@@H](O)C1 (mixture of isomers) [NAD006] | yes (1) |
| CC(=O)O[C@@H]1C=CC(n2c3ccccc3c3c4c(c5c6ccccc6[nH]c5c32)C(=O)NC4=O)CC1 (mixture of isomers) [NAD135] | no (0) |
